compounds and their reported log10 IC50
System: human platelet aggregation
Test: Human platelet aggregation inhibitory test (ADP-induced, platelet rich plasma)
Format: cell-based
Measurement Conditions: human PRP, 5 μM ADP, compound added 1 minute before ADP, turbidity (aggregometer), read-out: Platelet Aggregation Inhibitory Effect IC50
Recorded Endpoint: log10 IC50 (log10 of the value in nM)

{"Smiles Str": "Cc1ccc(C(=O)N(CCN2CCOc3c(OCC(=O)O)cccc32)c2ccc(C)cc2)cc1", "Experimental Result": 0.77}
{"Smiles Str": "Cc1ccc(C(=O)N(CCN2CCOc3c(OCC(=O)O)cccc32)c2ccc(Br)cc2)cc1", "Experimental Result": 1.43}
{"Smiles Str": "O=C(O)COc1cccc2c1OCCN2CCN(C(=O)c1ccccc1)c1ccc(Cl)cc1", "Experimental Result": 1.11}
{"Smiles Str": "O=C(O)COc1cccc2c1OCCN2CCN(C(=O)C1=CCCCC1)c1ccc(Br)cc1", "Experimental Result": 1.74}
{"Smiles Str": "O=C(O)COc1cccc2c1OCCN2CCN(C(=O)c1ccccc1)c1ccc(Cl)cc1F", "Experimental Result": 0.94}
{"Smiles Str": "CSc1ccc(N(CCN2CCOc3c(OCC(=O)O)cccc32)C(=O)c2ccccc2)cc1", "Experimental Result": 1.15}
{"Smiles Str": "Cc1ccc(N(CCN2CCOc3c(OCC(=O)O)cccc32)C(=O)c2ccccc2)cc1", "Experimental Result": 0.72}
{"Smiles Str": "O=C(O)COc1cccc2c1OCCN2CCN(C(=O)c1ccccc1)c1ccc(Cl)cc1Cl", "Experimental Result": 1.26}
